Reference source for all entries: ChEMBL document CHEMBL5154874

- run.description: AUC (0 to infinity) in mouse at 60 mg/kg, po measured for 0.25 to 24 hrs
- Assay type: ADME, organism-based
- Design: time lower 0.25 hrs, dose 60 mg/kg, time upper 24 hrs, route po
- assay.setup: in vivo
property: AUC(0-inf) (ng·h/mL)

> print(dat)
                               entry.smiles  units.label  value.observed
1  CCCCc1sc(C2CCN(CCCCc3cn(C)c4ccc(C#N)cc34)CC2)nc1-c1ccc(Oc2ccc(Cl)cc2)cc1      ng·h/mL           24700

###

- tested.on: Advanced glycosylation end product-specific receptor (Homo sapiens)
- Sequence (Q15109 whole entry): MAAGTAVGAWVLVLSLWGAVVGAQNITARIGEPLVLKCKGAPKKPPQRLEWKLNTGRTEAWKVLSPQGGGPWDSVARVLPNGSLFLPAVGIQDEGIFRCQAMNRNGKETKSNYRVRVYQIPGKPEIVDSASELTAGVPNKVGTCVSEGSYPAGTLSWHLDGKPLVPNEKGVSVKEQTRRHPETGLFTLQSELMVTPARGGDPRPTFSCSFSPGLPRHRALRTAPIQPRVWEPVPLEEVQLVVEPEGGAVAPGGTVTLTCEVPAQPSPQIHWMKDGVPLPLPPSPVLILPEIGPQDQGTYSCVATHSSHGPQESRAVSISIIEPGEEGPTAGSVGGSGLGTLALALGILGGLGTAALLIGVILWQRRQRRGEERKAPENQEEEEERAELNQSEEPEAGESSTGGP
- run.description: Inhibition of biotinylated human RAGE/amyloid beta interaction incubated for 120 mins by ELISA assay
pIC50: −log10 of the molar value.
property: pIC50

> print(dat)
                               entry.smiles  value.observed
1  CCN(CC)CCOc1cccc(Nc2nc(-c3ccc(Cl)cc3)cc(-c3ccc(Cl)cc3)n2)c1            4.98
2  N#Cc1ccc2[nH]cc(CCCCN3CCN(c4ccc5oc(C(N)=O)cc5c4)CC3)c2c1          < 3.70
3  CCCCc1nc(C2CCN(CCc3c[nH]c4ccc(C#N)cc34)CC2)cn1-c1ccc(Oc2ccc(Cl)cc2)cc1          < 4.70
4  CCCCc1sc(C2CCN(CCc3c[nH]c4ccc(C#N)cc34)CC2)nc1-c1ccc(Oc2ccc(Cl)cc2)cc1          < 4.70
